# MEASURED ON: T1, Lsb1, P53281
# T1 sequence (P53281 45-122, looked up): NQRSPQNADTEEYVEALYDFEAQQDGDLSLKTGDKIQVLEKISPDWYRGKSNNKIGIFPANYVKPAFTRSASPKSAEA
# EXPERIMENTAL PROTOCOL: SPOT array
# CONDITION INFO: median of control spots 388
Entries and their measured SPOT intensity follow.

BINDER | SPOT intensity
VRVKKRPLIRPLNSS | 9
RSVKRPRRAPRPVVS | 94
YHSRRHPLALGFKYV | 0
VPPPMQPPPIESSNL | 99
RRSKSLPITPKSIFN | 0
PKMLPIPSKPTLFDL | 2
AAAPKHAPPPVPNET | 0
NTMKKRPAPPSLPSL | 52
SPLGAPPPPPHKDHL | 0
PELAPKREAPKPPAN | 0
GERSRPLVISILSSA | 0
RPVPPPPPMRTTTEG | 0
QPWTDQFEKLEKEVS | 0
SRQAIPPPVPNRPGG | 1590
ANNQGPPNLPARDKS | 461
NLDRSKISLPDFDDE | 84
FLIKFTPKFPQSIDH | 46
HKVLRPFLLRRLKKD | 0
AIPPPVPNRPGGTTN | 948
VNIPSPSSSPPPIPK | 0
TKPTPPPKPSHLKPK | 0
NRARYLPQNPDIIAG | 1
IPSRPAPKPPSSASA | 493
VATSTSPKLPPRGKQ | 561
LKQRFFLMFPKSIIW | 7
QQNRPLPQLPNRNNR | 176
EEEEEHPPLPARRKS | 32
ATKSASPTLPTRRSR | 56
PALPSLPPPPLLNVD | 0
AHFQPQRTAPKPPIS | 17
